Reported values of bioavailability for individual entries
assay: Oral bioavailability in Sprague-Dawley rat at 10 mg/kg administered as single dose; type: ADME, organism-based; conditions: in vivo

compound	unit-annotation	bioavailability
c1cc(C2CCC3(CC2)OOC2(OO3)C3CC4CC(C3)CC2C4)ccc1CN1CCOCC1 (configuration not stated)	%	41.3
c1cc([C@@H]2CCCC3(C2)OOC2(OO3)C3CC4CC(C3)CC2C4)ccc1CN1CCOCC1 (some centres not stated)	%	76.4

---

Reported values of Cmax for individual entries
assay: Cmax in Sprague-Dawley rat at 10 mg/kg, po administered as single dose; assay type: ADME, organism-based; set-up: route oral, dose 10 mg/kg; details: in vivo

molecule	unit-annotation	Cmax
c1cc(C2CCC3(CC2)OOC2(OO3)C3CC4CC(C3)CC2C4)ccc1CN1CCOCC1 (configuration not stated)	ng/mL	136
c1cc([C@@H]2CCCC3(C2)OOC2(OO3)C3CC4CC(C3)CC2C4)ccc1CN1CCOCC1 (some centres not stated)	ng/mL	410

All values here come from ChEMBL document CHEMBL4834468.
